- measurement.target: T1, IL-13 (in-house) (UniProt P35225 35-146, limits assumed)
- T1 construct: SPR analyte
- T1 sequence (P35225 35-146 limits assumed): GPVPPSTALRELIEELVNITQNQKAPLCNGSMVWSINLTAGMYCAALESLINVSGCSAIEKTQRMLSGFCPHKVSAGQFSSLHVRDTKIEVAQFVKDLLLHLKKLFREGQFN
- test.protocol: SPR (BIAcore T200), Fab captured on anti-Fab chip, IL-13 as analyte, 25 C, 1:1 model
Recorded measurements of Kd, one per entry
# output: bare number, implied unit nM

**Query** Indicate its recorded Kd; the binder in question is Parental anti-IL-13 Fab (lebrikizumab) (Fab, V domains shown, Tested as Fab) VH: EVTLRESGPALVKPTQTLTLTCTVSGFSLSAYSVNWIRQPPGKALEWLAMIWGDGKIVYNSALKSRLTISKDTSKNQVVLTMTNMDPVDTATYYCAGDGYYPYAMDNWGQGSLVTVSS VL: DIVLTQSPDSLSVSLGERATINCRASKSVDSYGNSFMHWYQQKPGQPPKLLIYLASNLESGVPDRFSGSGSGTDFTLTISSLQAEDVAVYYCQQNNEDPRTFGGGTKVEIK
**Result** 0.05

**Query** For the binder anti-IL-13 Fab variant CDR L3 D94A (Fab, V domains shown, Fab; variable domains only; Kabat numbering) VH: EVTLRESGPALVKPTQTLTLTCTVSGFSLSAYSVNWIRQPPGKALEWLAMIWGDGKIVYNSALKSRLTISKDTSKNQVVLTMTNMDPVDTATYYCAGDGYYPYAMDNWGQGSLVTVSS VL: DIVLTQSPDSLSVSLGERATINCRASKSVDSYGNSFMHWYQQKPGQPPKLLIYLASNLESGVPDRFSGSGSGTDFTLTISSLQAEDVAVYYCQQNNEAPRTFGGGTKVEIK , give its reported Kd.
**Result** 0.02

Now look at this one.
**Query** Check the records and state Kd for anti-IL-13 Fab variant CDR L3 D94A:R96A (Fab, V domains shown, Fab; variable domains only; Kabat numbering; also called D94: R96A double substitution) VH: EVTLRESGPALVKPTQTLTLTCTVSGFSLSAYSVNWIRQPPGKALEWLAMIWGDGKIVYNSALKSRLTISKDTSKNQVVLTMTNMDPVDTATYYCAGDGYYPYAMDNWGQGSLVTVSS VL: DIVLTQSPDSLSVSLGERATINCRASKSVDSYGNSFMHWYQQKPGQPPKLLIYLASNLESGVPDRFSGSGSGTDFTLTISSLQAEDVAVYYCQQNNEAPATFGGGTKVEIK
**Result** 0.7
